Target: human muscarinic acetylcholine M3 receptor (M3-ACh) (Homo sapiens, UniProt P20309)
Construct: expressed in transfected cells; host or cells: CHO-K1 (Chinese Hamster Ovary) cell membranes
Sequence (P20309 whole entry): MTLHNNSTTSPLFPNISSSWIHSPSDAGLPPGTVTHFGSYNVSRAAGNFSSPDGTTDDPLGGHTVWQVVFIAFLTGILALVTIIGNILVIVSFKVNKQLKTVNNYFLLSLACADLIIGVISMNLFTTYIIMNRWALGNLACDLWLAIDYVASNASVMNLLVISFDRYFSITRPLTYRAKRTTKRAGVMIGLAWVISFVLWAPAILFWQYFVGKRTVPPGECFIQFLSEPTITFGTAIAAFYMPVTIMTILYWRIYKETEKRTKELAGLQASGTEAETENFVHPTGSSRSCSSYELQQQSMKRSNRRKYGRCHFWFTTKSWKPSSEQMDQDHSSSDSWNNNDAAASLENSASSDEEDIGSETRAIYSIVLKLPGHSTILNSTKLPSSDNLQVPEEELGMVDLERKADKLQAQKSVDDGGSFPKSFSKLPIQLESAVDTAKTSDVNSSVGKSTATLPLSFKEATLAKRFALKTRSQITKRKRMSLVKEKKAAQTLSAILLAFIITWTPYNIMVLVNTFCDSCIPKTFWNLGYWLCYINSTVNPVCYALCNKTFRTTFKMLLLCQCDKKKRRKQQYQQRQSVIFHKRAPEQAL
Assay: Muscarinic 3 Receptor Binding Assay ([3H]NMS competition, SPA)
Conditions: [3H]NMS 0.1 nM, CHO-K1 cell membranes, 16 hours at room temperature; read-out: M3 pIC50 (converted)
Procedure: Muscarinic 3 Receptor Binding Assay The affinity (pIC50) of compounds binding to the M3 receptor is determined by competition binding of [^3H]N-methyl scopolamine (NMS) to CHO-K1 (Chinese Hamster Ovary) cell membranes expressing the human muscarinic acetylcholine M3 receptor (M3-ACh) in a scintillation proximity assay (SPA) format. […]
Structures can show the parent of a compound that is named as a salt.
ENDPOINT: IC50 (µM)
Response body: numeric value in µM, unit text excluded.

Any idea what its IC50 is? The molecule is CC(C)c1csc(C(=O)N2CCOC3(CCN(Cc4cccc(CCNC[C@H](O)c5ccc(O)c6[nH]c(=O)sc56)c4)CC3)C2)n1 [Example 66, ditrifluoroacetate]
0.000794

What would you report for CC(C)c1ncc(C(=O)N2CCOC3(CCN(CCCCCCCCCNC[C@H](O)c4ccc(O)c5[nH]c(=O)sc45)CC3)C2)s1 [Example 115, formate] ?
0.00794

What would you report for CC(C)c1ncc(C(=O)N2CCOC3(CCN(CCOc4ccc(CNC[C@H](O)c5ccc(O)c6[nH]c(=O)sc56)cc4)CC3)C2)s1 [Example 114] ?
0.316

What would you report for CC(C)c1nc(C(=O)N2CCOC3(CCN(Cc4ccc(C(F)(F)F)c(CCNC[C@H](O)c5ccc(O)c6[nH]c(=O)sc56)c4)CC3)C2)cs1 [Example 270, ditrifluoroacetate] ?
0.0794

What would you report for O=C(c1csc(C2CCCC2)n1)N1CCOC2(CCN(Cc3cc(F)cc(CCNC[C@H](O)c4ccc(O)c5[nH]c(=O)sc45)c3)CC2)C1 [Example 59, ditrifluoroacetate] ?
0.00794

What would you report for CC(C)c1cccc(C(=O)N2CCOC3(CCN(Cc4cccc(CCNC[C@H](O)c5ccc(O)c6[nH]c(=O)sc56)c4F)CC3)C2)n1 [Example 85, ditrifluoroacetate] ?
0.0501

What would you report for O=C(c1ccc(Cl)s1)N1CCOC2(CCN(Cc3cc(F)cc(CCNC[C@H](O)c4ccc(O)c5[nH]c(=O)sc45)c3)CC2)C1 [Example 124] ?
0.0126

What would you report for Cc1nc(C(=O)N2CCOC3(CCN(CCc4ccc(CNC[C@H](O)c5ccc(O)c6[nH]c(=O)ccc56)s4)CC3)C2)cs1 [Example 98, ditrifluoroacetate] ?
0.00126

What would you report for O=C(c1nc2ccccc2s1)N1CCOC2(CCN(CCCCCCCCCNC[C@H](O)c3ccc(O)c4[nH]c(=O)sc34)CC2)C1 [Example 107, formate] ?
0.00631

What would you report for CC(C)(C)c1nc(C(=O)N2CCOC3(CCN(Cc4cc(CCNC[C@H](O)c5ccc(O)c6[nH]c(=O)sc56)cs4)CC3)C2)cs1 [Example 43, ditrifluoroacetate] ?
0.0398

What would you report for CC(C)c1nc(C(=O)N2CCOC3(CCN(CCOc4ccc(CCNC[C@H](O)c5ccc(O)c6[nH]c(=O)sc56)c(F)c4F)CC3)C2)cs1 [Example 269, ditrifluoroacetate] ?
0.00631

What would you report for COC(=O)c1ccc(C(=O)N2CCOC3(CCN(Cc4cccc(CCNC[C@H](O)c5ccc(O)c6[nH]c(=O)sc56)c4)CC3)C2)s1 [Example 30, ditrifluoroacetate] ?
0.0158

Data credit: patent US8148373B2
